- TARGET ENTITY: T1, human VPAC2 receptor (human, UniProt P41587 24-438)
- T1 construct: whole, on cells
- T1 sequence (looked up): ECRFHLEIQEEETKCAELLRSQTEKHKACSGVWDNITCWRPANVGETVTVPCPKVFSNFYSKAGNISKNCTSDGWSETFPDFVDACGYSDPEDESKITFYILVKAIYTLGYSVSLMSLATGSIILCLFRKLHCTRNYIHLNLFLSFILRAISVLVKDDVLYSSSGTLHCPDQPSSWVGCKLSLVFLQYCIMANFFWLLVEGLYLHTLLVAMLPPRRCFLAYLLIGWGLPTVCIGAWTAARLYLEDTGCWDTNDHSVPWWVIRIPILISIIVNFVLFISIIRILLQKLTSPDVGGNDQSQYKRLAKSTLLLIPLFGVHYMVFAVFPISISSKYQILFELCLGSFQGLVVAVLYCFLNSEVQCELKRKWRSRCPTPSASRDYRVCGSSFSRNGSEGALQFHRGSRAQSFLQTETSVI
- EXPERIMENT SUMMARY: filter binding, VPAC2 membranes, 125I-VIP tracer
Ends that are not written are not given here. * marks the point of attachment. Hexanoyl = CCCCCC(=O)*
RECORDED METRIC: IC50 (nM)

>  <BINDER>
Hexanoyl-HSDAVFTDNYTRLLAKLALQKYLQSIKNKRYGGPSSGAPPPC(PEG 40 kDa) (T0013 drops Thr 11 (print error); also called PEGylated P164) [P190]

>  <RECORDED VALUE>
4.44

$$$$
